Data origin: ChEMBL document CHEMBL1137618

Target: Neuronal acetylcholine receptor; alpha3/beta4 (Homo sapiens, UniProt P30926+P32297)
Sequence (P30926 whole entry): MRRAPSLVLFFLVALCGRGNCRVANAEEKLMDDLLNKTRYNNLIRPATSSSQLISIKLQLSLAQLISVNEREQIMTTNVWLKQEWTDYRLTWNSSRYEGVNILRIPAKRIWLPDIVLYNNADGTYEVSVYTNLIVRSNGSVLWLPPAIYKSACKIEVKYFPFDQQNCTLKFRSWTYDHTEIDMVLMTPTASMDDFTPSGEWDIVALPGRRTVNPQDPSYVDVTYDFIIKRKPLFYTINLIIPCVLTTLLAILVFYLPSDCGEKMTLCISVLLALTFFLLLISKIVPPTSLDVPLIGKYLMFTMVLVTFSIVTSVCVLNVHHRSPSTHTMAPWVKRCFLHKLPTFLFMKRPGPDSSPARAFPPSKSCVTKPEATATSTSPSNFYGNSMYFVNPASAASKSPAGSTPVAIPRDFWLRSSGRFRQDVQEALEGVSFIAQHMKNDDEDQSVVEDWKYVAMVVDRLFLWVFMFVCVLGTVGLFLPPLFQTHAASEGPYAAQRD
Sequence (P32297 whole entry): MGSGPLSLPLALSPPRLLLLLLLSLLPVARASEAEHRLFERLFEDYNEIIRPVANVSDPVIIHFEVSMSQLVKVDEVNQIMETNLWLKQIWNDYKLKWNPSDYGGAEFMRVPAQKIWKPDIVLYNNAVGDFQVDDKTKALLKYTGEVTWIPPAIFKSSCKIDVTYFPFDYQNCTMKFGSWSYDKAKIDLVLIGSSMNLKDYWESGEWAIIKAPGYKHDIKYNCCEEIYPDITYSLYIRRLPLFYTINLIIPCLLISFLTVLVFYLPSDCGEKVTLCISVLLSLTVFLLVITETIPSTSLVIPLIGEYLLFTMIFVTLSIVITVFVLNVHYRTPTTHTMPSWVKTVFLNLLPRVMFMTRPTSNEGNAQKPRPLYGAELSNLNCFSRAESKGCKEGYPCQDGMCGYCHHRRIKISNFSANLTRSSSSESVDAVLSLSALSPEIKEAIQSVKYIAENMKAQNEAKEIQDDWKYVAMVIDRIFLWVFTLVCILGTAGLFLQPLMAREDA
Assay: Agonist activity at recombinant human alpha-3-beta-4 nAChR expressed in HEK293 cells assessed as induction of calcium influx by FLIPR assay
Assay type: functional, cell-based
Conditions: read-out: Log EC50 (converted)
Exercise: state measured EC50 for each of the compounds provided.
Answers are plain numbers, in µM.

Sample answers from the record:
[
  {
    "mol-smiles": "Cc1cc(N2C[C@@H]3CNC[C@@H]32)cnc1C",
    "tested-target": "Neuronal acetylcholine receptor; alpha3/beta4 (Homo sapiens, UniProt P30926+P32297)",
    "result-unit": "µM",
    "experimental-result": 12
  },
  {
    "mol-smiles": "C#Cc1cncc(N2C[C@H]3CNC[C@H]32)c1",
    "tested-target": "Neuronal acetylcholine receptor; alpha3/beta4 (Homo sapiens, UniProt P30926+P32297)",
    "result-unit": "µM",
    "experimental-result": 77.6
  },
  {
    "mol-smiles": "C#Cc1cncc(N2C[C@@H]3CNC[C@@H]32)c1",
    "tested-target": "Neuronal acetylcholine receptor; alpha3/beta4 (Homo sapiens, UniProt P30926+P32297)",
    "result-unit": "µM",
    "experimental-result": 13.2
  }
]

Could you report EC50 for every entry in the following list?
1. COc1cncc(N2C[C@@H]3CN[C@@H]3C2)c1
2. c1cncc(N2C[C@H]3CNC[C@H]32)c1
3. Brc1cncc(N2C[C@@H]3CNC[C@@H]32)c1

Result:
1: 46.8; 2: 29.5; 3: 3.09

###

Molecular target: Neuronal acetylcholine receptor; alpha4/beta2 (Homo sapiens, UniProt P17787+P43681)
Sequence (P17787 whole entry): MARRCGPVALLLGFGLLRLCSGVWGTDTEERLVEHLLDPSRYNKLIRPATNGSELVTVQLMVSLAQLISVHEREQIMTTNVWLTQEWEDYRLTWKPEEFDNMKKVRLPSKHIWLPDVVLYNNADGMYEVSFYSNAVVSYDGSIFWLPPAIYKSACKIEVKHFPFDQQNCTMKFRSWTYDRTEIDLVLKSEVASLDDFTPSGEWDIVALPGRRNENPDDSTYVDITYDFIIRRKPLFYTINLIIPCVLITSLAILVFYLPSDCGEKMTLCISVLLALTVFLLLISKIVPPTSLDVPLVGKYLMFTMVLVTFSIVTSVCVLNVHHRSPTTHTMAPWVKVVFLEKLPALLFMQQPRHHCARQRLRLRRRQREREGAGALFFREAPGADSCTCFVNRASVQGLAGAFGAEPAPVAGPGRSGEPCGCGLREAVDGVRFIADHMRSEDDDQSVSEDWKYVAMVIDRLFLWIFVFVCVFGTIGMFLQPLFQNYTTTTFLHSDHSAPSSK
Sequence (P43681 whole entry): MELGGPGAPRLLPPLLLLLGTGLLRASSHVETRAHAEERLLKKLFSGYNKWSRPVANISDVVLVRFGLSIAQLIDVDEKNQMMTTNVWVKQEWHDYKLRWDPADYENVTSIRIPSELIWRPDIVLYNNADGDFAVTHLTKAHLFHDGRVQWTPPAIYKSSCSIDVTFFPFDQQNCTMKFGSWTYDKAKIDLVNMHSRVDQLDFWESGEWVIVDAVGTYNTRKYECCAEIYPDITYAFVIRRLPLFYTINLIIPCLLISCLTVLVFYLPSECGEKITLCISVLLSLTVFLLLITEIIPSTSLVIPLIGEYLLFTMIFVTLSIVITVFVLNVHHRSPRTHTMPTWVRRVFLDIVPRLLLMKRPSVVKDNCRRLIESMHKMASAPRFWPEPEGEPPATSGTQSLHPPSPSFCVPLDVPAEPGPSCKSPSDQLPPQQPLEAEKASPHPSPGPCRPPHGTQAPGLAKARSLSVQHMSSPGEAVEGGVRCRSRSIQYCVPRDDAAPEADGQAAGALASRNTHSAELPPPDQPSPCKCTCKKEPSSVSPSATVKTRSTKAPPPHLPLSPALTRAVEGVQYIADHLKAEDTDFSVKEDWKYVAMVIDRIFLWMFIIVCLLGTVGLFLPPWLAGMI
Assay: Agonist activity at recombinant human alpha-4-beta-2 nAChR expressed in HEK293 cells assessed as induction of calcium influx by FLIPR assay
Format: functional, cell-based
Conditions: read-out: EC50
measured-metric: log10(EC50) (log10 of the value in µM)
The figures below represent log10 of EC50, where EC50 is stated in µM.

[
  {
    "mol-smiles": "C#Cc1cncc(N2C[C@@H]3CNC[C@@H]32)c1",
    "experimental-result": 1.31
  },
  {
    "mol-smiles": "N#Cc1cc(N2C[C@H]3CNC[C@H]32)c[n+]([O-])c1",
    "experimental-result": 0.88
  },
  {
    "mol-smiles": "Clc1ccc(N2C[C@H]3CNC[C@H]32)cn1",
    "experimental-result": -0.22
  }
]

State recorded log10(EC50) for all listed molecules.
1. N#Cc1cncc(N2C[C@@H]3CN[C@@H]3C2)c1
2. Clc1cc(N2C[C@@H]3CN[C@@H]3C2)cnc1Br
3. Cc1cc(N2C[C@H]3CN[C@H]3C2)cnc1Cl
4. Cc1cc(N2C[C@@H]3CNC[C@@H]32)cnc1C

Result:
1: 1.16; 2: -0.40; 3: -0.15; 4: 0.18

Query: GET /values?readout=log10(EC50)&item= Cc1cc(N2C[C@H]3CNC[C@H]32)cnc1C
Result: 0.32

###

Assay: Displacement of [3H]cytisine from neuronal nicotinic acetylcholine receptor in rat brain membrane
Assay type: cell membranes
Outcome label depends on Log Ki relative to -9: at/above gives Condition met, below gives Condition not met.

[
  {
    "mol-smiles": "c1cncc(N2C[C@H]3CN[C@H]3C2)c1",
    "assigned-class": "Condition not met"
  },
  {
    "mol-smiles": "N#Cc1cncc(N2C[C@H]3CN[C@H]3C2)c1",
    "assigned-class": "Condition not met"
  },
  {
    "mol-smiles": "COc1cncc(N2C[C@H]3CN[C@H]3C2)c1",
    "assigned-class": "Condition not met"
  },
  {
    "mol-smiles": "Brc1cc(N2C[C@H]3CNC[C@H]32)cnc1Br",
    "assigned-class": "Condition not met"
  },
  {
    "mol-smiles": "COc1cncc(N2C[C@@H]3CN[C@@H]3C2)c1",
    "assigned-class": "Condition met"
  },
  {
    "mol-smiles": "Brc1cncc(N2C[C@H]3CNC[C@H]32)c1",
    "assigned-class": "Condition met"
  },
  {
    "mol-smiles": "Brc1cncc(N2C[C@H]3CN[C@H]3C2)c1",
    "assigned-class": "Condition not met"
  },
  {
    "mol-smiles": "Cc1ncc(N2C[C@H]3CN[C@H]3C2)cc1C#N",
    "assigned-class": "Condition not met"
  }
]

Query: Does the reported Log Ki for NC(=O)c1cc(N2C[C@H]3CNC[C@H]32)cnc1Br fall at or above the -9 mark?
Result: Condition met

Query: Then what about the molecule Cc1cc(N2C[C@@H]3CN[C@@H]3C2)cnc1C ?
Result: Condition met

Query: Similarly, N#Cc1cc(N2C[C@@H]3CN[C@@H]3C2)cnc1Br ?
Result: Condition not met

Query: Next entry: N#Cc1cncc(N2C[C@H]3CNC[C@H]32)c1
Result: Condition met

Query: Then N#Cc1cc(N2C[C@H]3CNC[C@H]32)cnc1Br ?
Result: Condition not met

Query: Follow-up entry: Clc1cncc(N2C[C@@H]3CN[C@@H]3C2)c1
Result: Condition met
